Data provenance: PubChem BioAssay (NCI)

System: HOP-92 NSCLC
Assay: NCI tumour cell line growth inhibition, 48 h
readout-type: TGI

1. O=C1c2ccccc2C(=O)c2c(NC(=O)c3ccc4c5c(ncnc35)-c3ccccc3C4=O)cccc21 ... > 100 µM
2. COC(=O)/C(=N\O)C(C(=O)C=C(C)C)C(=O)C(=O)Nc1ccccc1C (stereo not drawn) ... > 100 µM
3. N#CC12Cc3ccc4c(c3-c3cccc(c31)CCN2C(=O)c1ccccc1)OCO4 (stereo not drawn) ... > 100 µM
4. O=c1c2ncn(CCCl)c2n(-c2ccccc2)c(=S)n1-c1ccccc1 ... > 100 µM
5. O=P1(O)c2ccccc2CS(=O)(=O)Cc2ccccc21 ... > 100 µM
6. CC[C@H](C)[C@H](NC(=O)C12CC(NC(C)=O)(C1)C2)C(=O)N(C)[C@H](C[C@@H](OC(C)=O)c1nc(C(=O)N[C@@H](Cc2ccccc2)C[C@H](C)C(=O)OC)cs1)C(C)C ... > 16.7 µM

Ask | Recorded TGI for `COc1c2ccoc2c(S(=O)(=O)Nc2ccc(Cl)cc2)c2oc(C)cc(=O)c12` with HOP-92 NSCLC, please?
Reply | > 93.6 µM

Ask | Another: `N#CC[C@H](C1CCCC1)n1cc(-c2ncnc3[nH]ccc23)cn1`
Reply | > 100 µM

* * *

System: SNB-19 CNS
Assay: NCI tumour cell line growth inhibition, 48 h
readout-type: GI50

Use these answered entries as a reference point.
1. Cc1ccc(-c2cc(/C=N/O)on2)cc1 ... > 100000 nM
2. CS[C@@]1(C(=O)Nc2ccc3[nH]nc(-c4ccc(OC(C)C)nc4)c3c2)CCN(CC(=O)N2CC=C(c3ccc(-c4ncn(C)n4)cc3)CC2)C1 ... > 100000 nM
3. CN(C)CCOc1nc2ccccc2c2c1-c1ccc(Cl)cc1C2=O ... 460 nM
4. CC(=O)OCC(=O)C1(O)C(C)CC2C3C=C(C)C4=Cc5c(cnn5-c5ccccc5)CC4(C)C3C(O)CC21C (stereo not given) ... 2310 nM

Ask | Fill blank: measured GI50 of the compound `COc1cnc2c(c1)C(=O)c1c-2n(CCCN2CCN(CCO)CC2)c(=O)c2cc([N+](=O)[O-])ccc12` is ____.
Reply | 2380 nM

* * *

Test system: SK-OV-3 ovarian
Assay: NCI tumour cell line growth inhibition, 48 h
Quick list: TGI per entry.

Some solved entries appear below for comparison.
1. COC(=O)c1cc(C)n(NC(=O)OC(C)(C)C)c1C ... > 100 µM
2. CCOC(=O)CNC(=O)C(CSC(=O)N(C)O)NC(=O)CCC(N)C(=O)O (centres undefined) ... > 2000 µM
3. O=C(NC/C(Cl)=C/Cl)Nc1cccc2c1CCCC2 ... > 100 µM

Next item in the queue.
Ask | I am curious: what TGI value has been reported for `COc1ccc(Nc2nc3ccccc3nc2C(=O)O)cc1` ?
Reply | > 100 µM

* * *

Test system: SF-539 CNS
Experiment: NCI tumour cell line growth inhibition, 48 h
readout-type: log10 TGI (log10 of the value in µM)
Hi team, quick reminder: these entries are log10 of TGI (µM).

Ask | Observed log10 TGI on SF-539 CNS for CCCCCCC1N=C(N)N=C(N)N1c1ccc(Cl)cc1 (stereo unspecified) , please.
Reply | 1.26

Ask | # iterate: O=C(CC1(O)C(=O)Nc2c(Cl)ccc(Cl)c21)c1ccc(C2CC2)cc1 (stereo unspecified)
Reply | 0.76

Ask | For `C=C(C)[C@@H]1CC[C@]2(C)[C@H](C=CC3=C4C[C@@](C)(CO)CC[C@]4(C)CC[C@]32C)[C@@]1(C)CCCN` then?
Reply | 0.50

Ask | Proceed to `CN(C)/C=N/S(=O)(=O)c1nn2c(C=O)c(-c3ccc([N+](=O)[O-])cc3)nc2s1`
Reply | 1.85

Ask | Next record, please: `O=C(CCc1cccc(O)c1)NCCc1cccc(OCc2ccccc2)c1`
Reply | 1.49

Ask | What about this compound? `CCOC(=O)C(Cc1ccc(OC)cc1)C(=O)OCC`
Reply | 0.97
